Tested on: NCI-H226
Run Description: NCI tumour cell line growth inhibition, 48 h
Activity calls are given as the source filed them. No stated cut-off is given here; in the data, active = GI50 up to about 1.1 µM and inactive = higher.
In this exercise, the only acceptable responses are TRUE (active), FALSE (inactive)

INPUT: What outcome does the record of this test show for CCOC(=O)/C=C(\C)c1ccc(C)cc1C ?
OUTPUT: FALSE

INPUT: What outcome does the record of this test show for O=C1C=C(c2c(-c3ccccc3)[nH]c3ccccc23)C(=O)N1c1ccccc1 ?
OUTPUT: FALSE

INPUT: Lab log entry: CC(=O)Nc1ccc2c3c(cc(O)c2c1)N(C(=O)CCCCCCC(=O)Nc1ccc2c4c(cc(O)c2c1)N(C(=O)OC(C)(C)C)CC4CCl)CC3CCl (centres undefined) — outcome as called in the assay?
OUTPUT: TRUE

***
INPUT: # fetch the recorded call for CC1=N[C@@](C)(C2CC3C=CC2C3=O)COC1=O (some centres undefined) here
OUTPUT: FALSE

INPUT: Each molecule tested received a call. Report the one for Nc1nc2c(nnn2C2C=C(CO)C(O)C2O)c(=O)[nH]1 (centres undefined) .
OUTPUT: FALSE

INPUT: In this assay, the call recorded for CC(C)OP(=O)(OC(C)C)/C(=N/Nc1ccc([N+](=O)[O-])cc1)Nc1ccccc1 was what?
OUTPUT: FALSE

INPUT: # fetch the recorded call for O=C(NCCCCN(CCCNC(=O)C(F)(F)F)Cc1ccccc1)C(F)(F)F here
OUTPUT: FALSE

INPUT: What call does the record list for COc1c(OC)c(OC)c2c(=O)cc(-c3ccc(OC(C)C)cc3)oc2c1OC ?
OUTPUT: FALSE

* * *

System: NCI/ADR-RES
Run Description: NCI tumour cell line growth inhibition, 48 h
Calls of active or inactive are those of the source. Cut-off read from the data, not from the text of the source: active = GI50 up to about 1.1 µM and inactive = higher.
Readout Type: GI50

Completed entries (count: 8):
INPUT: Return GI50 (reported value) for this compound: C/C=C(\C)CC/C=C/CO[Si](C)(C)C(C)(C)C
OUTPUT: > 100 µM (inactive)

INPUT: Fill in GI50 for record COCO[C@@H]1C[C@H]2C(=O)Nc3ccccc3C(=O)N2C1
OUTPUT: 79.1 µM (inactive)

INPUT: Return value of GI50 for input O=C(CNc1ccccc1[N+](=O)[O-])Nn1cnc2ccc(S(=O)(=O)Nc3ccccc3[N+](=O)[O-])cc2c1=O , no commentary.
OUTPUT: > 100 µM (inactive)

INPUT: State, in one line, measured GI50 of CC(C)(C)N1C=[N+](C(C)(C)C)CC1
OUTPUT: > 100 µM (inactive)

INPUT: Give GI50 for O=c1[nH]c(Cc2ccccc2)nc2c1sc1nc3ccccc3n12
OUTPUT: > 100 µM (inactive)

INPUT: In one line, give reported GI50 of the entry COc1ccc(-c2c(-c3ccc(OC)cc3)n3c(=O)n(C)c(=O)n23)cc1 .
OUTPUT: 18.4 µM (inactive)

INPUT: Determine its reported GI50: Cc1[nH]nc(C(=O)N/N=C/c2ccccc2Cl)c1/N=N\N(C)C
OUTPUT: 6.1 µM (inactive)

INPUT: Note down GI50 recorded for NC(CC(=O)Nc1cc(C(F)(F)F)ccc1Cl)=NO
OUTPUT: > 100 µM (inactive)

***
INPUT: Give recorded GI50. O=c1[nH]c(=O)n(CCOc2ccccc2)cc1Nc1ccccc1
OUTPUT: > 100 µM (inactive)

INPUT: Return value of GI50 for input CN(Cc1cc(C(C)(C)C)cc(Br)c1O)Cc1cc(C(C)(C)C)cc(Br)c1O , no commentary.
OUTPUT: 3.03 µM (inactive)

INPUT: Specify reported GI50 for the compound shown: CCOC(=O)NC(C(=O)OCC)(N1CCN(c2cc3c(cc2F)c(=O)c(C(=O)O)cn3CC)CC1)C(F)(F)F (configuration not stated)
OUTPUT: > 100 µM (inactive)

INPUT: Hello, please tell me recorded GI50 for this one: Nc1ncnc2c1ncn2C1OC(CO)C(O)C(O)C1O (configuration not stated)
OUTPUT: > 100 µM (inactive)

INPUT: State its GI50: CC1=C(/C=C/Cl)CC(Cl)C(C)(Cl)C1 (configuration not stated)
OUTPUT: > 100 µM (inactive)

INPUT: Please report GI50 for the following compound: CC(O)CC(O)(C(F)(F)F)C(F)(F)F (configuration not stated)
OUTPUT: > 10 µM (inactive)

INPUT: # return recorded GI50 for entry C/C(=N\c1c2ccccc2nc2ccccc12)N(C)C
OUTPUT: 16.3 µM (inactive)

INPUT: Please supply the value of reported GI50 for the item [O-]c1c2cc(-[n+]3c(-c4ccccc4)cc(-c4ccccc4)cc3-c3ccccc3)cc1CO[C@@H](c1ccccc1)[C@H](c1ccccc1)OCCOCCO[C@@H](c1ccccc1)[C@H](c1ccccc1)OC2
OUTPUT: 1.14 µM (inactive)

* * *

System: OVCAR-8
Run Description: NCI tumour cell line growth inhibition, 48 h
Calls of active or inactive are those of the source. No stated cut-off is given here; in the data, active = GI50 up to about 1.1 µM and inactive = higher.
Quick reference: GI50 of the listed items.

INPUT: Specify measured GI50 for O=C1C2CC=CCC2C(=O)N1n1c(Cc2ccccc2)n[nH]c1=O (stereo not given) .
OUTPUT: > 100 µM (inactive)

INPUT: Indicate the recorded GI50 value for this compound: COc1ccc(C(O)c2nccn2C)c(OC)c1 (stereo not given)
OUTPUT: > 100 µM (inactive)

Continuing:
INPUT: Write down GI50 measured for item FC(F)(F)c1ccc2nc3n(c2c1)C(c1c(Cl)cccc1Cl)SC3 (stereo not given)
OUTPUT: 19.6 µM (inactive)

INPUT: Quickly give me recorded GI50 for COC(=O)C1=C(c2cc(OC)c(OC)c(OC)c2)OC(c2cc(OC)c(OC)c(OC)c2)C1COC(C)=O (stereo not given)
OUTPUT: 59.7 µM (inactive)

INPUT: Give the measured GI50 for CN(C)S(=O)(=O)/N=C/c1cccc(/C=N/S(=O)(=O)N(C)C)c1
OUTPUT: 51.3 µM (inactive)

* * *

Test system: SNB-19
Run Description: NCI tumour cell line growth inhibition, 48 h
The source made the active and inactive calls. Cut-off read from the data, not from the text of the source: active = GI50 up to about 1.1 µM and inactive = higher.
Readout Type: GI50

The cases that follow already have their GI50 on record.
INPUT: # return recorded GI50 for input Cl/C(=C\C=N\c1ccc(I)cc1)c1ccc2ccccc2c1
OUTPUT: 18.3 µM (inactive)

INPUT: // Input: COC1(O)C(=O)c2ccccc2OC1(OC)c1ccccc1 (stereo unspecified) . Output its GI50 only.
OUTPUT: > 100 µM (inactive)

INPUT: Fill in GI50 for record CC1=NC2(C(=O)O)C3(C(=O)O)N=C(C)OC3(C(F)(F)F)C2(C(F)(F)F)O1 (stereo unspecified)
OUTPUT: > 100 µM (inactive)

INPUT: Tell me GI50 reported for Cc1ccc(S(=O)(=O)N/N=C2\C=CC3(CC2)C(=O)N(I)c2ccccc23)cc1 (stereo unspecified)
OUTPUT: > 100 µM (inactive)

INPUT: Consider the compound COc1ccc(CCN2CCOCC2)cc1 and give its recorded GI50.
OUTPUT: > 100 µM (inactive)

Continuing:
INPUT: Name the recorded GI50 of the compound listed here: COc1cc(-c2cc(=O)c3cc4c(cc3[nH]2)OCO4)cc(OC)c1O
OUTPUT: > 10 µM (inactive)

INPUT: # return recorded GI50 for input COc1ccc(-c2cc(=O)c3cc(O)ccc3o2)c(OC)c1OC
OUTPUT: 47.4 µM (inactive)

INPUT: Determine from records and report GI50 for Cc1c2cc[n+](C)cc2c(COC2OC(CO)C(O)C2O)c2c3ccccc3n(C)c12 (stereo unspecified)
OUTPUT: 14.5 µM (inactive)

INPUT: # return recorded GI50 for input NCCCN1c2ccccc2Sc2ccc(Cl)cc21
OUTPUT: > 8.45 µM (inactive)

INPUT: Could you please provide reported GI50 for CC(C)(C)C1(O)C=C(O)C(=O)N1NC(=O)c1ccccc1Nc1ccccc1 (stereo unspecified) ? Thanks!
OUTPUT: 54.8 µM (inactive)

INPUT: Fill in GI50 for record Nc1ccc2c(c1)nc1n2C(c2c(F)cccc2F)SC1 (stereo unspecified)
OUTPUT: > 100 µM (inactive)

* * *

Tested on: A549
Run Description: NCI tumour cell line growth inhibition, 48 h
Activity calls are given as the source filed them. Rule as the data show it: active = GI50 up to about 1.1 µM and inactive = higher.
Write down the outcome that applies. Available outcomes: 1 (active), 0 (inactive)

// known answers, use as guide
INPUT: Any idea what this test logged for Nc1ccc(S2(c3ccc(N)cc3)C=C(c3ccccc3)C(c3ccccc3)=C2)cc1 ?
OUTPUT: 0

INPUT: Assay outcome for O=C1C=CC(=O)N1c1ccc2c(c1)Cc1cc(NC(=O)C(F)(F)F)ccc1-2 : what was it?
OUTPUT: 0

INPUT: Check the results log: what was the call for O=C1C(Cl)C(c2ccc([N+](=O)[O-])cc2)N1n1cnc2ccccc2c1=O (stereo unspecified) ?
OUTPUT: 0

INPUT: Which outcome was assigned to O=C1c2cccnc2-c2nccc3c2c1nc1ccc(Br)cc13 in this test?
OUTPUT: 1

***
INPUT: Hi team, can someone confirm the assay call for CC(C)(CCC(C)(C)N1OC1c1ccccc1)N1OC1c1ccccc1 (stereo unspecified) ?
OUTPUT: 0

INPUT: Hello, I am checking results. What call was entered for Nc1ccccc1N/C=C\C(=O)C(Cl)(Cl)Cl ?
OUTPUT: 0

INPUT: Name the outcome recorded for COc1ccc(/N=C\c2ccc(N(CCC#N)CCC#N)cc2)cc1 in the assay.
OUTPUT: 0

Recorded values, source ChEMBL document CHEMBL1201862.
